# protocol: chemical genetic growth profiling, strain panel (AID 1159580);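 further: tested at 20 µM; growth read once vehicle control cultures reached saturation at 30 °C; 1 = growth at the plate median or of vehicle wells; lower values mean less growth of the strain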
# run-conditions: S. cerevisiae deletion strains, growth OD, locus YML032C, strain rad52, stronger effect = lower value
Hit rate of the full screen: of about 5,500 compounds, about 2,000 (36%) were called active. Roughly 18% stayed inconclusive and do not appear here. Some of the results follow.
measurement-kind: normalized growth

CC1(C)CC[C@]2(C(=O)O)CC[C@]3(C)C(=CCC4[C@@]5(C)CC[C@@H](O)C(C)(C)C5CC[C@]43C)C2C1 (some centres undefined) :: 0.991
COC(=O)C[C@H]1C(C)(C)C2(O)OC34CC2C(=O)[C@]1(C)C3CC[C@]1(C)C4=CC(=O)O[C@H]1c1ccoc1 (some centres undefined) :: 1.01
CC1=CCC2C3(C)C1=CC(=O)OC3CC1C(C)(C)CC(O)C(O)C12C (centres undefined) :: 1
CC(C)=CCCC1(C)C=Cc2c(O)c3c(c(CC=C(C)C)c2O1)OC12C(=CC4CC1C(C)(C)OC2(C/C=C(/C)C(=O)O)C4=O)C3=O (centres undefined) :: 0.879

----------
# protocol: chemical genetic growth profiling, strain panel (AID 1159580);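 further: tested at 20 µM; growth read once vehicle control cultures reached saturation at 30 °C; 1 = growth at the plate median or of vehicle wells; lower values mean less growth of the strain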
# run-conditions: S. cerevisiae deletion strains, growth OD, locus YDR392W, strain spt3, stronger effect = lower value
Screen size: about 5,500 compounds; about 2,000 (36%) were called active. Roughly 18% stayed inconclusive and do not appear here. The list shows a part of the results. Where a SMILES comes first, the peptide text is derived from it. Bridges are numbered along the chain shown (N, C = ends). [ ]: non-standard residue; d: D form. The star is where a group is joined. ξ: configuration not given here. ξDab(CH2SO3H) = NC(CCNCS(=O)(=O)O)C(=O)O; Heptanoyl(6-Me) = CC(C)CCCCC(=O)*; Dab = NCC[CH](N)C(=O)O
Lab note: anything with normalized growth below 0.9 is marked YES; values at 0.9 or higher are marked NO.

Cc1cc(O)cc(C)c1Cl :: YES
C/C=C(/C)C(=O)OC1CCC2(C)C3CCC4C5(O)CC(O)C6(O)C(CN7CC(C)CCC7C6(C)O)C5(O)CC42OC13O (stereo not given) :: NO
C[C@H]1[C@H](C)CC[C@]2(CO)CC[C@]3(C)C(=CCC4[C@@]5(C)CC[C@H](O)C(C)(C)C5CC[C@]43C)[C@H]12 (stereo not given in full) :: NO
CC(=O)NC(C(=O)O)C(C)(C)SN=O (stereo not given) :: NO
COc1ccc2c(c1)c(CC(=O)OCC(=O)O)c(C)n2C(=O)c1ccc(Cl)cc1 :: NO
C#C[C@]1(O)CCC2C3CCC4=CC(=O)CC[C@@H]4C3CC[C@@]21C (stereo not given in full) :: YES
CCC(C)C1NC(=O)C(CCNCS(=O)(=O)O)NC(=O)C(NC(=O)C(CCNCS(=O)(=O)O)NC(=O)C(NC(=O)C(CCNCS(=O)(=O)O)NC(=O)CCCCC(C)C)C(C)O)CCNC(=O)C(C(C)O)NC(=O)C(CCNCS(=O)(=O)O)NC(=O)C(CCNCS(=O)(=O)O)NC(=O)C(C(C)CC)NC1=O (stereo not given) ({Heptanoyl(6-Me)}-[ξDab(CH2SO3H)]T[ξDab(CH2SO3H)][Dab][ξDab(CH2SO3H)]II[ξDab(CH2SO3H)][ξDab(CH2SO3H)]T; lactam 4-C; configuration not given here) :: NO
O=C(CNC(=O)c1ccc(Cl)cc1)NO :: NO
C[C@@H]1OC(O[C@H]2C(O[C@H]3CC[C@@]4(C)C(CC[C@]5(C)C4CC=C4C6CC(C)(C)CC[C@]6(C(=O)O)CC[C@]45C)[C@]3(C)CO)OC[C@H](O)[C@@H]2O)[C@H](O)[C@H](O)[C@H]1O (stereo not given in full) :: YES
CC1(C)CC(O)C2(C)CCC3(C)C(=CCC4C5(C)CCC(O)C(C)(CO)C5CCC43C)C2C1 (stereo not given) :: NO
CC1=NS(=O)(=O)c2cc(Cl)ccc2N1 :: NO
Nc1ccc(S(=O)(=O)Nc2ccnn2-c2ccccc2)cc1 :: NO
CC(C)CC(N(C)C)C1(c2ccc(Cl)cc2)CCC1 (stereo not given) :: NO
CC1(C)CC[C@@]2(C(=O)O)C(C1)C1=CCC3[C@@]4(C)CC[C@H](O)C(C)(C)C4CC[C@@]3(C)[C@]1(C)C[C@@H]2O (stereo not given in full) :: NO
O=c1[nH]cc(F)c(=O)[nH]1 :: YES
CCOc1ccc2nc3cc(N)ccc3c(N)c2c1 :: YES
COc1cc(C(=O)O[C@H]2CC[C@@]3(C)[C@@H]4CC[C@H]5[C@]6(O)C[C@H](O)[C@@]7(O)[C@@H](CN8C[C@@H](C)CC[C@H]8[C@@]7(C)O)[C@]6(O)C[C@@]53O[C@]24O)cc(OC)c1OC :: NO
CC(C)=CCCC1(C)C=Cc2c(O)c3c(c(CC=C(C)C)c2O1)OC12C(=CC4CC1C(C)(C)OC2(C/C=C(/C)C(=O)O)C4=O)C3=O (stereo not given) :: YES
CO[C@@]12[C@@H]3NC3CN1C1=C(C(=O)C(N)=C(C)C1=O)[C@@H]2COC(N)=O (stereo not given in full) :: NO
Cc1cc(O)ccc1Cl :: NO
COC(=O)C[C@H]1C(C)(C)C(=O)[C@@H]2CC3C4=CC(=O)O[C@@H](c5ccoc5)[C@]4(C)CCC3[C@@]1(C)C2=O (stereo not given in full) :: NO

----------
Quick reference for normalized growth among some molecules
# protocol: chemical genetic growth profiling, strain panel (AID 1159580);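 further: tested at 20 µM; growth read once vehicle control cultures reached saturation at 30 °C; 1 = growth at the plate median or of vehicle wells; lower values mean less growth of the strain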
# run-conditions: S. cerevisiae deletion strains, growth OD, locus YHR200W, strain rpn10, stronger effect = lower value
Out of some 5,500 compounds screened, about 2,000 (36%) were called active. About 18% were inconclusive and are not listed. This is one part of the list. Where a SMILES comes first, the peptide text is derived from it. Bridges are numbered along the chain shown (N, C = ends). [ ]: non-standard residue; d: D form. The star is where a group is joined. ξ: configuration not given here. ξDab(CH2SO3H) = NC(CCNCS(=O)(=O)O)C(=O)O; Heptanoyl(6-Me) = CC(C)CCCCC(=O)*; Dab = NCC[CH](N)C(=O)O
measurement-kind: normalized growth

Cc1cn([C@H]2C[C@H](N=[N+]=[N-])[C@@H](CO)O2)c(=O)[nH]c1=O :: 1.01
CCC(C)C1NC(=O)C(CCNCS(=O)(=O)O)NC(=O)C(NC(=O)C(CCNCS(=O)(=O)O)NC(=O)C(NC(=O)C(CCNCS(=O)(=O)O)NC(=O)CCCCC(C)C)C(C)O)CCNC(=O)C(C(C)O)NC(=O)C(CCNCS(=O)(=O)O)NC(=O)C(CCNCS(=O)(=O)O)NC(=O)C(C(C)CC)NC1=O (centres undefined) ({Heptanoyl(6-Me)}-[ξDab(CH2SO3H)]T[ξDab(CH2SO3H)][Dab][ξDab(CH2SO3H)]II[ξDab(CH2SO3H)][ξDab(CH2SO3H)]T; lactam 4-C; configuration not given here) :: 0.951
COC(=O)C[C@H]1C(C)(C)C(=O)[C@@H]2CC3C4=CC(=O)O[C@@H](c5ccoc5)[C@]4(C)CCC3[C@@]1(C)C2=O (some centres undefined) :: 0.981
CCOC(=O)OC(C)OC(=O)C1N2C(=O)C(NC(=O)[C@H](N)c3ccccc3)C2SC1(C)C (some centres undefined) :: 0.997
Nc1ccc(S(=O)(=O)c2ccc(N)cc2)cc1 :: 1
NC12CC3CC(CC(C3)C1)C2 :: 1.02
C[C@@H]1CC[C@]2(C(=O)O)CC[C@]3(C)C(=CCC4[C@@]5(C)CC[C@H](O)C(C)(C)C5CC[C@]43C)C2[C@H]1C (some centres undefined) :: 0.986
COC1=C[C@@H]2[C@@H]3Cc4ccc(OC)c(O)c4[C@]2(CCN3C)CC1=O :: 0.975
COC(=O)C[C@H]1C(C)(C)C2(O)OC34CC2C(=O)[C@]1(C)C3CC[C@]1(C)C4=CC(=O)O[C@H]1c1ccoc1 (some centres undefined) :: 1
CC(C)=CCCC1(C)C=Cc2c(O)c3c(c(CC=C(C)C)c2O1)OC12C(=CC4CC1C(C)(C)OC2(C/C=C(/C)C(=O)O)C4=O)C3=O (centres undefined) :: 0.914
O=C1C(O)=C(O)C(=O)C(O)=C1O :: 1
COc1ccc2c(c1)c(CC(=O)OCC(=O)O)c(C)n2C(=O)c1ccc(Cl)cc1 :: 1.01
COc1cc(C(=O)O[C@H]2CC[C@@]3(C)[C@@H]4CC[C@H]5[C@]6(O)C[C@H](O)[C@@]7(O)[C@@H](CN8C[C@@H](C)CC[C@H]8[C@@]7(C)O)[C@]6(O)C[C@@]53O[C@]24O)cc(OC)c1OC :: 0.987
O=C(O)/C=C1\CCCc2ccccc2C1O (centres undefined) :: 0.989
